# tested.system: human GLP-1R (Homo sapiens, UniProt P43220)
# Sequence (P43220 24-463): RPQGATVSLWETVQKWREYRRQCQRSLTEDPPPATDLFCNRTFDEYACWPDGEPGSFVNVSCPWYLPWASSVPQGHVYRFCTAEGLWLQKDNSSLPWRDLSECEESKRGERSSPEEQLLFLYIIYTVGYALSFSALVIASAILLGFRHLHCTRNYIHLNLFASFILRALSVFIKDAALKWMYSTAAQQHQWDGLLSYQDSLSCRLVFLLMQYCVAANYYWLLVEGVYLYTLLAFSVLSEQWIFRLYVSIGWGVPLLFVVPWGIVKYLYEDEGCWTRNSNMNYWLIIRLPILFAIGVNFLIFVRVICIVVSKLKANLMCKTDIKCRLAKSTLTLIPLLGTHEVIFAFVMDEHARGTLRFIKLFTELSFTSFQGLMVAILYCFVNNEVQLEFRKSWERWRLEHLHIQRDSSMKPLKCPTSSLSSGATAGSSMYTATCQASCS
# assay.method.text: Human GLP-1 Receptor HEK293 cell cAMP assay, 581 fmol/mg GLP-1R expression density
# Type: cell-based
# Design: expressed in transfected cells; host or cells: HEK293 clonal cell line
# condition.details: HEK293 cell line with 581 fmol/mg expression density of GLP-1R; geometric mean; read-out: EC50 nM (SEM, n), intracellular cAMP response, relative EC50
# Experimental: Human GLP-1 Receptor HEK293 Cell cAMP Assay GLP-1 Receptor functional activity is determined using cAMP formation in an HEK293 clonal cell line expressing human GLP-1R (NCBI accession number NP_002053) at an expression density of 581±94 (n=6) and 104±12 (n=5) fmol/mg protein (determined using [^125I]GLP-1(7-36)NH2 homologous competition binding analysis). […]
quantity.kind: EC50 (nM)
Give bare numbers, in nM.

Some compounds with known EC50 results, for comparison:
CNC(=O)c1ccc(-c2ccc3c(c2)CCCOc2cc(ccc2Cc2nc4ccc(C(=O)O)cc4n2C[C@@H]2CCO2)-c2cccc(n2)OC3)cc1 : 300
N#Cc1ccc2c(c1)OCCc1cc(c(F)cc1Cc1nc3ccc(C(=O)O)cc3n1C[C@@H]1CCO1)-c1cccc(n1)OC2 : 187
O=C(O)c1ccc2nc(Cc3ccc4cc3OCCCc3cc(-c5ccc(=O)[nH]c5)ccc3COc3cccc-4n3)n(C[C@@H]3CCO3)c2c1 : 130
N#Cc1ccc2c(c1)CCCOc1cc(c(F)cc1Cc1nc3ccc(C(=O)O)cc3n1C[C@@H]1CCO1)-c1cccc(n1)OC2 : 19.8

I need EC50 for every entry listed below, if you could help.
1. CCn1cncc1Cn1c(Cc2ccc3cc2OCCCc2cc(C#N)ccc2COc2cccc-3n2)nc2c(OC)cc(C(=O)O)cc21
2. Cn1ncc(-c2ccc3c(c2)CCCOc2cc(ccc2Cc2nc4ccc(C(=O)O)cc4n2C[C@@H]2CCO2)-c2cccc(n2)OC3)n1

Reply:
1. 29.9
2. 178

Provenance of the data: patent US20240343740A1
